Just for reference, patent US20260034044A1 is where these values come from.

Test system: Cutibacterium acnes DSM 1897
MEASURED_PROPERTY: MIC

C[C@@H]1CC[C@@]2(OC1)O[C@H]1CC3C4CC=C5CC(O[C@@H]6O[C@H](CO)[C@@H](O[C@@H]7O[C@@H](C)[C@H](O[C@@H]8O[C@@H](C)[C@H](O)[C@@H](O)[C@H]8O)[C@@H](O)[C@H]7O)[C@H](O)[C@H]6O[C@@H]6O[C@@H](C)[C@H](O)[C@@H](O)[C@H]6O)CC[C@]5(C)C4CC[C@]3(C)[C@@]1(O)[C@@H]2C (stereo partly shown) [B] | > 80 µg/mL

For C[C@H]1CC[C@@]2(OC1)O[C@H]1CC3C4CC[C@H]5C[C@@H](O[C@@H]6O[C@H](CO)[C@H](O[C@@H]7O[C@H](CO)[C@@H](O)[C@H](O)[C@H]7O[C@@H]7O[C@H](CO)[C@@H](O)[C@H](O)[C@H]7O)[C@H](O)[C@H]6O)[C@H](O)C[C@]5(C)C4=CC(=O)[C@]3(C)[C@H]1[C@@H]2C (stereo partly shown) [D] , what is its reported MIC? > 80 µg/mL

Any idea what its MIC is? The molecule is CC1CC[C@@]2(OC1)O[C@H]1CC3C4CC=C5C[C@@H](O[C@@H]6O[C@H](CO)[C@@H](O[C@@H]7O[C@@H](C)[C@H](O)[C@@H](O)[C@H]7O)[C@H](O)[C@H]6O[C@@H]6O[C@@H](C)[C@H](O)[C@@H](O)[C@H]6O)CC[C@]5(C)C4CC[C@]3(C)[C@@]1(O)[C@@H]2C (stereo partly shown) [C] > 80 µg/mL

Which MIC is listed for C[C@H]1CC[C@@]2(OC1)O[C@H]1CC3C4CC[C@H]5C[C@@H](O[C@@H]6O[C@H](CO)[C@H](O[C@@H]7O[C@H](CO)[C@@H](O)[C@H](O[C@@H]8OC[C@@H](O)[C@H](O)[C@H]8O)[C@H]7O[C@@H]7O[C@H](CO)[C@@H](O)[C@H](O)[C@H]7O)[C@H](O)[C@H]6O)[C@H](O)C[C@]5(C)C4=CC(=O)[C@]3(C)[C@H]1[C@@H]2C (stereo partly shown) [A] ? > 80 µg/mL

---

Test system: Zygosaccharomyces bailii DSM 70834
Experiment: Antimicrobial activity (MIC)
Format: cell-based
Settings: DSM70834, potato dextrose broth pH 3.8, visual evaluation, read-out: Minimal Inhibitory Concentration (MIC)
MEASURED_PROPERTY: MIC

// returns reported MIC for input C[C@H]1CC[C@@]2(OC1)O[C@H]1CC3C4CC[C@H]5C[C@@H](O[C@@H]6O[C@H](CO)[C@H](O[C@@H]7O[C@H](CO)[C@@H](O)[C@H](O[C@@H]8OC[C@@H](O)[C@H](O)[C@H]8O)[C@H]7O[C@@H]7O[C@H](CO)[C@@H](O)[C@H](O)[C@H]7O)[C@H](O)[C@H]6O)[C@H](O)C[C@]5(C)C4=CC(=O)[C@]3(C)[C@H]1[C@@H]2C (stereo partly shown) > 80 µg/mL

---

Tested on: Zygosaccharomyces bailii DSM 70834
Below is a list of entries, each paired with its recorded MIC value.

Worked examples follow.
C[C@H]1CC[C@@]2(OC1)O[C@H]1CC3C4CC[C@H]5C[C@@H](O[C@@H]6O[C@H](CO)[C@H](O[C@@H]7O[C@H](CO)[C@@H](O)[C@H](O)[C@H]7O[C@@H]7O[C@H](CO)[C@@H](O)[C@H](O)[C@H]7O)[C@H](O)[C@H]6O)[C@H](O)C[C@]5(C)C4=CC(=O)[C@]3(C)[C@H]1[C@@H]2C (stereo partly drawn) | > 80 µg/mL
CC1CC[C@@]2(OC1)O[C@H]1CC3C4CC=C5C[C@@H](O[C@@H]6O[C@H](CO)[C@@H](O[C@@H]7O[C@@H](C)[C@H](O)[C@@H](O)[C@H]7O)[C@H](O)[C@H]6O[C@@H]6O[C@@H](C)[C@H](O)[C@@H](O)[C@H]6O)CC[C@]5(C)C4CC[C@]3(C)[C@@]1(O)[C@@H]2C (stereo partly drawn) | > 80 µg/mL

Kindly review the next molecule as well.
# returns recorded MIC (system: Zygosaccharomyces bailii DSM 70834) for C[C@@H]1CC[C@@]2(OC1)O[C@H]1CC3C4CC=C5CC(O[C@@H]6O[C@H](CO)[C@@H](O[C@@H]7O[C@@H](C)[C@H](O[C@@H]8O[C@@H](C)[C@H](O)[C@@H](O)[C@H]8O)[C@@H](O)[C@H]7O)[C@H](O)[C@H]6O[C@@H]6O[C@@H](C)[C@H](O)[C@@H](O)[C@H]6O)CC[C@]5(C)C4CC[C@]3(C)[C@@]1(O)[C@@H]2C (stereo partly drawn) > 80 µg/mL
